Tested on: ATP;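 also: ATP exposure 15 min at 22 °C before imaging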
Test: switch fluorescence ratio, 500 uM ATP over buffer (Cy3 cluster intensity, sum of 5 cycles each) (fold (ratio)); higher = stronger signal-on switching upon ATP binding; sequences stand for … in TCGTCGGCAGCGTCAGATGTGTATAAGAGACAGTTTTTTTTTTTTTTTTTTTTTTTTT…TC
Conditions: aptamer strand: ATP DNA aptamer (quencher-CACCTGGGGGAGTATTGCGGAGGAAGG + anchor), 100 nM annealed; ATP concentration: 500 uM
For each entry below, report its switch fluorescence ratio value.
// return just the number, without any unit appended

Entry TGGGGGTGTC : reported switch fluorescence ratio = ?
1.03

Entry AGAATAGGCG : reported switch fluorescence ratio = ?
1.02

Entry ACCTCTTATA : reported switch fluorescence ratio = ?
1.05

Entry AGGATAGTTG : reported switch fluorescence ratio = ?
0.982

Entry AGTTACGGGA : reported switch fluorescence ratio = ?
1.1

Entry CCGGGCAAGA : reported switch fluorescence ratio = ?
5.5

Entry TCTTTGGTTT : reported switch fluorescence ratio = ?
1.17

Entry TGGAGGGCTC : reported switch fluorescence ratio = ?
1.01

Entry AACCGATGCT : reported switch fluorescence ratio = ?
1.09

Entry TGGGGGGGTG : reported switch fluorescence ratio = ?
1.01

Entry CCAGGGAGTG : reported switch fluorescence ratio = ?
1.04

Entry GTTAATAGTG : reported switch fluorescence ratio = ?
0.988

Entry ATTGGACAGT : reported switch fluorescence ratio = ?
1

Entry TCTCAGAGTA : reported switch fluorescence ratio = ?
1

Entry AGGGGTAACT : reported switch fluorescence ratio = ?
0.996

Entry CCGTTATTAG : reported switch fluorescence ratio = ?
1.35

Entry CGTGGTGTGT : reported switch fluorescence ratio = ?
0.992

Entry GGTGTAGATT : reported switch fluorescence ratio = ?
1.07

Entry ATATTGAGGC : reported switch fluorescence ratio = ?
1.01

Entry TACTAGACAG : reported switch fluorescence ratio = ?
1.03
